- target_or_system: human IL-23R (Homo sapiens, UniProt Q5VWK5)
- test_description: biochemical
*1 amine or outer side, *2 acyl side, *3 side chain or, on linkers, in order; H or OH if unused. Where a SMILES comes first, the peptide text is derived from it. Bridges are numbered along the chain shown (N, C = ends). [ ]: non-standard residue; d: D form. 2Nal = N[C@@H](Cc1ccc2ccccc2c1)C(=O)O; AEF = NCCOc1ccc(C[C@H](N)C(=O)O)cc1; X1 = O=C(Cc1ccc(CN[*:1])cc1)[*:2]; 3Pal = N[C@@H](Cc1cccnc1)C(=O)O; αMeL = CC(C)C[C@](C)(N)C(=O)O; Dab = NCC[C@H](N)C(=O)O
Measured pIC50 accompanies every entry in the list below.
Please keep in mind that pIC50 is minus log10 of the molar concentration; only the number is needed.

Use the examples below as a reference point.
>>> assay_value("CNC(=O)[C@H](Cc1cccnc1)NC(=O)[C@H](CCN)NC(=O)[C@@H]1CCC(=O)NCc2ccc(cc2)CC(=O)N[C@@H](CO)C(=O)N[C@H]2CCC(=O)NCC[C@H](NC(=O)[C@H](CCC(=O)N(C)C)NC(=O)[C@H](Cc3c[nH]c4ccccc34)NC2=O)C(=O)N[C@@H](Cc2ccc(OCCN)cc2)C(=O)N[C@@H](Cc2ccc3ccccc3c2)C(=O)N[C@@](C)(CC(C)C)C(=O)N1 [Compound 30] ([X1]SEWE(NMe2)[Dab][AEF][2Nal][αMeL]E[Dab][3Pal]-NHMe; lactam 3-6, N-10)")
10.74
>>> assay_value("CCCC[C@H](NC(=O)[C@@H]1CCC(=O)NCc2ccc(cc2)CC(=O)N[C@@H](CO)C(=O)N[C@H]2CCC(=O)NCC[C@H](NC(=O)[C@H](CCC(N)=O)NC(=O)[C@H](Cc3c[nH]c4ccccc34)NC2=O)C(=O)N[C@@H](Cc2ccc(OCCN)cc2)C(=O)N[C@@H](Cc2ccc3ccccc3c2)C(=O)N[C@@](C)(CC(C)C)C(=O)N1)C(=O)N[C@@H](Cc1cccnc1)C(=O)NC [Compound 32]")
10.57

Turning to the following molecule.
QUERY: Entry CNC(=O)[C@H](Cc1cncnc1)NC(=O)[C@H](CCN)NC(=O)[C@@H]1CCC(=O)NCc2ccc(cc2)CC(=O)N[C@@H](CO)C(=O)N[C@H]2CCC(=O)NCC[C@H](NC(=O)[C@H](CCC(N)=O)NC(=O)[C@H](Cc3c[nH]c4ccccc34)NC2=O)C(=O)N[C@@H](Cc2ccc(OCCN)cc2)C(=O)N[C@@H](Cc2ccc3ccccc3c2)C(=O)N[C@@](C)(CC(C)C)C(=O)N1 [Compound 19] has what pIC50?
RESULT: 10.27
